Test system: MS2 coat protein
Test: apparent KD of MS2 coat protein; designed switch direction (-1 OFF switch, 1 ON switch): 1; higher = weaker reporter binding
Settings: input ligand: microRNA oligo, concentration not stated
Kindly state apparent KD of MS2 coat protein for each of the entries shown.
Answers are plain numbers, in nM.

In the examples that follow, each entry is paired with its recorded apparent KD of MS2 coat protein.
GUAGCAUGCAGGCAGGAUAUUCAUAUUAAAACAUGAGGAUCACCCAUGUAGGCCAAAAGGCCUUGGGAGAAGGGCCACAUGCUAC [Xeonanis - 19] (Eterna round: R96, puzzle: Same State 2) | 337
AAGGGAUGAGCGUAGGAUAUAGGAGAAGUGACAUGAGGAUCACCCAUGUAAAAGGAGGGAUGAGACUAGAAGGACGAGGUAGGAG [JR_SS2_Sub059] (Eterna round: R96, puzzle: Same State 2) | 55.4
GGAGCCGGCCUAGGAUAUUUCAUUAAUAAACAUGAGGAUCACCCAUGUAGGCCAGAAGGCCUUGGGAAGAAGGAGGUCGGCUCC [Loop Effect - U24,U27] (Eterna round: R96, puzzle: Same State NG 2) | 24.5
GCUGCAAGGGCAGGAUAUGGGUUCAGAGCGGAAGUGCGCUUUGAUACAUGAGGAUCACCCAUGUCCCAGAAGGGCCCAAACGGC [Beanti] (Eterna round: R96, puzzle: Same State NG 2) | 99.3
GGCCUCUGUCAAGGAUAUGCUACCGUUUCGGUAGCAGAAGGUGAUCACAUGCGGGUCACCCAUGUUUAGGCCCUCUGGCCCGCC (Eterna round: R96, puzzle: Same State NG 1) | 10.2

Go through the items and report each one's apparent KD of MS2 coat protein.
1. AGUAUUAAUGCAGGAUAUGAUUAACAUGAGGAUCACCCAUGUGGUGUUGUGAGUAAGGAGAGUGAUCAGAAGGGCAUUUUUUUU [JMF's solution 38] (Eterna round: R96, puzzle: Same State NG 2)
2. AACAAUCUAUCUGAGGAUAUCAUGAAAAAAACAUGAGGAUCACCCAUGUGCAGGAAAACUGCAUAUGAGAAGGCAGAUAGAUUGU [salish99_SS2_r3_002] (Eterna round: R96, puzzle: Same State 2)

[175, 480]

----------
System: MS2 coat protein
Assay: apparent KD of MS2 coat protein; designed switch direction (-1 OFF switch, 1 ON switch): -1; higher = weaker reporter binding
Conditions: Eterna round: R95; input ligand: microRNA oligo, concentration not stated
Label scheme, based on apparent KD of MS2 coat protein: class A: < 30 nM; class B: ≥ 30 nM and < 60 nM; class C: ≥ 60 nM

Use these answered entries as a reference point.
CGUGACUCAGGAUAUCUAUUAUAUCACAUGAGGAUCACCCAUGUCCAGCGAAAGCUGGAGGGAGAAGGGAGUCACG [Fiskers Ex 5 - 44] (puzzle: Exclusion 5) | class C
AAUGAGCGAGGAUAUGCAACUGUAUGACCUACGUGUGCCAGACAUGAGGAUCACCCAUGUAGAAGGUGCUUUCC [Israte] (puzzle: Exclusion 2) | class B

Category lookup for the sequence CUGGUGUGAGGAUAUCAAAGACCUCGGGAUAGUACCGAGGAUGAGAAGGCACAUGAGGAUCACCCAUGUAACAA [Armaleti] (puzzle: Exclusion 4)
class A

Category lookup for the sequence CUAUUACGAGGAUAUGAUUUAAAUAACAUGAGGAUCACCCAUGUUUUUACGUUAUUAUGUUUAGAAGGCGUAUUGU [JR_E5_Sub026] (puzzle: Exclusion 5)
class B

Category lookup for the sequence AGUUGGCGAGGAUAUACAUGAGGAUCACCCAUGUGAAAUAGAAGAGUGAGGAAGAAAAGUAGAAGGCGCUGACA [Mat - Exclusion 3 - Mod of Salish D40] (puzzle: Exclusion 3)
class C

Category lookup for the sequence AGUAGUUGUUUCCGUUCUUACAUGAGGAUCACCCAUGUUUCUUGUCGUGCACGCGAUGCUCGUCAGACUACCAGAUG [salish99_TOv1_r3_058] (puzzle: Sensor v3, turn-off variant 1)
class C

Category lookup for the sequence GAUUGACAUGAGGAUCACCCAUGUGAGGAUAUCGGCCGGACCUUGUUAGCUUCCACCGCGAGAAGGCACAUCGG [Exclusion 1 V30] (puzzle: Exclusion 1)
class A

Category lookup for the sequence GUAGGGUCAGGAUAUACGGGCGGGAGGAUGUAUUGUAGUUGGUAGAAGGGACAUGAGGAUCACCCAUGUGAGAA [JR_Exclu4_Sub054] (puzzle: Exclusion 4)
class B

Category lookup for the sequence GAUUGACAUGAGGAUCACCCAUGUGAGGAUAUCGGCCGGAUCUUGUUAGCUUCCAUCGCGAGAAGGCACAUAGG [Exclusion 1 V33] (puzzle: Exclusion 1)
class B

Category lookup for the sequence AUGAGGUUAGGAUAUACAUGAGGAUCACCCAUGUUGAAGGGUUAGGUAGGCGGAGCUGGUAGAAGGAACGGAGC [JR_Exclu3_Sub057] (puzzle: Exclusion 3)
class B

Category lookup for the sequence UUAUAUAAUGUGAGGAUAUGCUGGUCGAGAGAUCAGCAGAAGGCACAUGAGGAUCACCCAUGUAGUAAAUUUUA [Mat - Exclusion 4 - JL Mod - D14] (puzzle: Brourd's mod of Exclusion 4)
class A

----------
System: MS2 coat protein
Experiment: apparent KD of MS2 coat protein; designed switch direction (-1 OFF switch, 1 ON switch): -1; higher = weaker reporter binding
Conditions: input ligand: FMN 200 uM
Kindly state apparent KD of MS2 coat protein for each of the entries shown.
Answer with the figure and its unit, nothing else.

Go through the items and report each one's apparent KD of MS2 coat protein.
1. GCUCACGCAGGAUAUACAUGAGGAUCACCCAUGUUCGAAGGGCGCGGGUACAAAGUCUGUAGAAGGGCGAAAAU [Getiin] (Eterna round: R97, puzzle: Exclusion 3)
2. UGACACACCUGAGGAUAUUCUGAACGUUUCCCAGAAGAAGGUAGGUACAGCGGGAGCGCCACAUGAGGAUCACCCAUGUCUACC [Eternabot solution 46] (Eterna round: R96, puzzle: Exclusion NG 1)
3. CGUACAAGCUUACUAUAGGACAUGAGGAUCACCCAUGUAAUUGACGUUGCAUACAAUCCGUGGAUCCCGGCUGCUCG [Eternabot (L1) Solution 15] (Eterna round: R97, puzzle: Sensor, turn-off variant 1)

1. 0.0261 µM
2. 0.126 µM
3. 0.043 µM

Go through the items and report each one's apparent KD of MS2 coat protein.
1. UGAGCAAGAGGAUAUACAUGACGUGCCGUAGCACGAGGUCUACAUGAGGAUCACCCAUGUAGAAGGCUUGUUCU [Mat - Exclusion 2 - JL Mod - D5] (Eterna round: R97, puzzle: Exclusion 2)
2. ACCCAGUCAGGAUAUCCGGAGUUCCGCGAUGGCGGACGGUAGGAGAAGGGACAUGAGGAUCACCCAUGUAGAAA [EX4 B.17] (Eterna round: R97, puzzle: Exclusion 4)
3. UGUGGACAUGAGGAUCACCCAUGUCAGCCGUGUCCACCGAGAGAGGAUAUUGGUCAACCAGGGACUAAGAAGGCUCAGAGCUGG [Eternabot solution 47] (Eterna round: R96, puzzle: Exclusion NG 3)
4. UGUAACCUAGGAUAUACAUGAGGAUCACCCAUGUAAUGUAGUAUAGUGUGUGUGAGGUGUAGAAGGUGGGAUGU (Eterna round: R97, puzzle: Exclusion 3)
5. CUCUAGUCAGGAUAUUAGUUGCCGCCUGGCAACAGGCGGCAUGAGAAGGGACUUGAGGAUCACCCAAGUAAAAG [Rabebete] (Eterna round: R97, puzzle: Exclusion 4)

1. 0.17 µM
2. 0.179 µM
3. 0.0303 µM
4. 0.0604 µM
5. 0.0661 µM

Go through the items and report each one's apparent KD of MS2 coat protein.
1. GCGGAGUAUGUAGGAUAUCGGUCAGUUUCUGAUCGAGAAGGACAUGAGGAUCACCCAUGUAAAUUGCCCGCUUUGUGGGUCCGC [JL ENG1 3.61] (Eterna round: R96, puzzle: Exclusion NG 1)
2. ACCGAAGCAGGAUAUACAUGAGGAUCACCCAUGUGCUUGCAUGGCGUGGGAAGUCAUAGUAGAAGGGCUACGCC [Onzaza] (Eterna round: R97, puzzle: Exclusion 3)

1: 0.0365 µM; 2: 0.053 µM

----------
Test system: MS2 coat protein
Assay: apparent KD of MS2 coat protein; designed switch direction (-1 OFF switch, 1 ON switch): -1; higher = weaker reporter binding
Details: input ligand: FMN 200 uM
Kindly state apparent KD of MS2 coat protein for each of the entries shown.
Give bare numbers, in nM.

UUUGUUUAUGUAGGAUAUGCCUGGCGUGCCUUCGCAGAAGGACAUGAGGAUCACCCAUGUAUUGCGGUCUGCGUUCAGAUCGCA [salish99_ExNG1_r4_031] (Eterna round: R96, puzzle: Exclusion NG 1) | 72.6
GCAAGCUUUUUGGUUUUCAACAUGAGGAUCACCCAUGUUCGUCUUAUACCCGGGCCCGGGCGGUGCCCGGGCCCGGG [-40, -68 kcal, A 14%] (Eterna round: R97, puzzle: Sensor, turn-off variant 1) | 18.2
GAGAGACGAGGAUAUGCAGGAGUGCAGUCAGGUUCCAAAAUACAUGAGGAUCACCCAUGUAGAAGGUGUCAUCU [Eternabot (L2) Solution 26] (Eterna round: R97, puzzle: Exclusion 2) | 16.6

Go through the items and report each one's apparent KD of MS2 coat protein.
1. UUUAUGUGAGGAUAUGCGGGCGGGCGUGAAAAUGUUUGUUUGUAGAAGGUACAUGAGGAUCACCCAUGUAGUGG [-22, -21.6 kcal, 24% A] (Eterna round: R97, puzzle: Exclusion 4)
2. GCAUGUCUUAAGGAUAUGCCUAGGCGUGAGCCGGCAGAAGGUAAGACAUGAGGAUCACCCAUGUUUUCCUAAAA [jl-ex6-4.30 ViennaUCT mod] (Eterna round: R97, puzzle: Exclusion 6)

180
280
